Measured apparent KD of MS2 coat protein, listed per entry.
Test system: MS2 coat protein
Assay: apparent KD of MS2 coat protein; higher = weaker reporter binding
Details: Eterna round: R107; input ligand: theophylline 20 uM
Hi! Could you send only the number? It should be in nM, unit omitted.

Example entries and their recorded answers appear below.
>  <SEQUENCE_CODE>
GUGCCGCAUUCACAUGAGGAUCACCCAUGUCGAGGACCGGUACGGCCGCCACUCGACGUGCUUACAGGUCCUUUAAGGCCCAAUA [Usislaan]

>  <EXPERIMENTAL_TARGET>
MS2 coat protein

>  <apparent KD of MS2 coat protein / nM>
200

$$$$
>  <SEQUENCE_CODE>
AGUUUAGACACGGCCGCCACUCGUGACAGAUUUCGCAGUGGUCAACAUGAGGAUCACCCAUGUCUGAGGACCGGGUGUUGAGUUU [XTryp B #7]

>  <EXPERIMENTAL_TARGET>
MS2 coat protein

>  <apparent KD of MS2 coat protein / nM>
48.7

$$$$
>  <SEQUENCE_CODE>
UCGCUCUGGGUGAAUUCCGGAGAUGUGGAAGGAGCGGACGAAAGUCCAGGUAGGUCGCCAUCGAACAUGAGGAUCACCCAUGUAC [Same State - Arginine A (Freestyle 24)]

>  <EXPERIMENTAL_TARGET>
MS2 coat protein

>  <apparent KD of MS2 coat protein / nM>
105

$$$$
>  <SEQUENCE_CODE>
GCUUGGGUGGCACGGCCCUGGCGGUGCGAUACCAGCACGGUAACGUGCCCUUGGCAGCGCACAUGAGGAUCACCCAUGUGGUGCG [#1 Exclusion - Theophylline A Attempt #24 (HarryS)]

>  <EXPERIMENTAL_TARGET>
MS2 coat protein

>  <apparent KD of MS2 coat protein / nM>
21.9

$$$$
>  <SEQUENCE_CODE>
AGCUCGCGAAAGCGAGCAACAUGAUCCGAAGGAGCGCGCGAAAGCGCAGGUAGGUCGCGGACAUGAGGAUCACCCAUGUCUCCUU [MAT - Exclusion Arginine A - Mod of Eli - D14]

>  <EXPERIMENTAL_TARGET>
MS2 coat protein

>  <apparent KD of MS2 coat protein / nM>
57.3

$$$$

Shift focus to the following entry.
get_value(item= AUGUCGUUGAAUAUAGCGGCUUGGAGUGAUACCAGCAUGAUCCAAUGCCCUUGGCAGCAUAACAUGAGGAUCACCCAUGUUCCAG [SSTheo A #26] , readout=apparent KD of MS2 coat protein) returns 68.7
